- systemName: human β2 adrenergic receptor (Homo sapiens)
- Construct: expressed in transfected cells; host or cells: CHO-K1
- assayExplanation: Whole-cell cAMP Flashplate assay using CHO-K1 cells stably expressing human β2 adrenergic receptor
- Type: cell-based
- testParameters: cAMP production
pEC50: −log10 of the molar value. Where a name gives a salt, the structure may show the parent alone.
Measured pEC50 of individual entries

compound	systemName	pEC50
COc1cc(NC(=O)CCc2ccc(-c3ccccc3)c(NC(=O)O[C@@H]3C[C@@H]4[C@H]5O[C@H]5[C@H](C3)[N+]4(C)C)c2)ccc1CNC[C@H](O)c1ccc(O)c2[nH]c(=O)ccc12 [Example 42]	human β2 adrenergic receptor (Homo sapiens)	9.10
C[N+]1(C)CCC(OC(=O)Nc2cc(CCC(=O)NCCCCCNC[C@H](O)c3ccc(O)c4[nH]c(=O)ccc34)ccc2-c2ccccc2)CC1 [Example 74, trifluoroacetate]	human β2 adrenergic receptor (Homo sapiens)	8.35
C[N+]1(C)CCC(OC(=O)Nc2cc(CCC(=O)Nc3ccc(CNC[C@H](O)c4ccc(O)c5[nH]c(=O)ccc45)c(F)c3)ccc2-c2ccccc2)CC1 [Example 7]	human β2 adrenergic receptor (Homo sapiens)	8.29
C[N+]1(C)CCC(OC(=O)Nc2cc(CCCCC(=O)Nc3ccc(CNC[C@H](O)c4ccc(O)c5[nH]c(=O)ccc45)cc3)ccc2-c2ccccc2)CC1 [Example 49, trifluoroacetate]	human β2 adrenergic receptor (Homo sapiens)	8.64
C[N+]1(C)CCC(OC(=O)Nc2cc(CCCC(=O)Nc3ccc(CNC[C@H](O)c4ccc(O)c5[nH]c(=O)ccc45)cc3)ccc2-c2ccccc2)CC1 [Example 32, trifluoroacetate]	human β2 adrenergic receptor (Homo sapiens)	8.08
C[N+]1(C)CCC(OC(=O)Nc2cc(OCCCCCCCCNC[C@H](O)c3ccc(O)c4[nH]c(=O)ccc34)ccc2-c2ccccc2)CC1 [Example 58, trifluoroacetate]	human β2 adrenergic receptor (Homo sapiens)	9.22

---

Measured pIC50 of individual entries
- systemName: human M3 muscarinic receptor (Homo sapiens)
- Construct: expressed in transfected cells; host or cells: CHO-K1
- Sequence (P20309 whole entry): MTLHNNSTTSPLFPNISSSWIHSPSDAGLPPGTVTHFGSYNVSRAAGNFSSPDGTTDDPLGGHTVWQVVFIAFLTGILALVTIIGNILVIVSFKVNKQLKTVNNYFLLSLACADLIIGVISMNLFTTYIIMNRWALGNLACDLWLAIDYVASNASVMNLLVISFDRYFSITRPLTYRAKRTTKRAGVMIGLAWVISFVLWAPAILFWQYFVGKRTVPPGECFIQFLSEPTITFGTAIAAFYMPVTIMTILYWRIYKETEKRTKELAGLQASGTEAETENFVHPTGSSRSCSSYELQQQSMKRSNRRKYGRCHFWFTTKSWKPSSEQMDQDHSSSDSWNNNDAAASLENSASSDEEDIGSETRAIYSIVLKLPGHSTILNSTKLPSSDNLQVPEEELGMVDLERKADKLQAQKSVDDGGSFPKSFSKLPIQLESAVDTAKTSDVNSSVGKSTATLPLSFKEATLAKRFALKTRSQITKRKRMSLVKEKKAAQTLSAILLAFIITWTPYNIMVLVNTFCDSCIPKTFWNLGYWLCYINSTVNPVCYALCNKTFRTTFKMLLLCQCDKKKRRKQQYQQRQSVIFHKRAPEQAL
- assayExplanation: Inhibitory effect on methacholine-induced calcium influx, FLIPR assay, CHO-K1 cells stably expressing the human M3 muscarinic receptor
- Assay type: cell-based
- testParameters: inhibition of calcium influx induced by methacholine
pIC50: −log10 of the molar value. Counter-ions that a name gives are not always drawn.
measuredEndpoint: pIC50

molecule	systemName	testValue
C[N+]1(C)CCC(OC(=O)Nc2cc(CCCC(=O)Nc3ccc(CNC[C@H](O)c4ccc(O)c5[nH]c(=O)ccc45)cc3F)ccc2-c2ccccc2)CC1 [Example 28, trifluoroacetate]	human M3 muscarinic receptor (Homo sapiens)	8.00
Cc1cc(NC(=O)CCc2ccc(-c3ccccc3)c(NC(=O)OC3CC[N+](C)(C)CC3)c2)ccc1CNC[C@H](O)c1ccc(O)c2[nH]c(=O)ccc12 [Example 8, trifluoroacetate]	human M3 muscarinic receptor (Homo sapiens)	7.87
C[N+]1(C)CCC(OC(=O)Nc2cc(CCC(=O)Nc3ccc(CNC[C@H](O)c4ccc(O)c5[nH]c(=O)ccc45)cc3Cl)ccc2-c2ccccc2)CC1 [Example 9, trifluoroacetate]	human M3 muscarinic receptor (Homo sapiens)	8.00

---

- systemName: human β2 adrenergic receptor (Homo sapiens, UniProt P07550)
- Sequence (P07550 whole entry): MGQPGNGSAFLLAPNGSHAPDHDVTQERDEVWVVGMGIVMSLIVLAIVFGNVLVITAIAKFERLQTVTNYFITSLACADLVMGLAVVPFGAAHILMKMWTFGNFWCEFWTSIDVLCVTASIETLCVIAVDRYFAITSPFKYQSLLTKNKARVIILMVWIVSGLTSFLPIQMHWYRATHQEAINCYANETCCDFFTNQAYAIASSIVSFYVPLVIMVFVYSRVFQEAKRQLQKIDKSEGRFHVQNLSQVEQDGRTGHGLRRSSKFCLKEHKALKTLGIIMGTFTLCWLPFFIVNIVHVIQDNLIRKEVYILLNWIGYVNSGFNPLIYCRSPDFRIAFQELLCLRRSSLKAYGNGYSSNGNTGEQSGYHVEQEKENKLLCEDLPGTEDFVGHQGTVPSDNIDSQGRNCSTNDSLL
- assayExplanation: Whole-cell cAMP Flashplate assay using CHO-K1 cells stably expressing human β2 adrenergic receptor
- testParameters: cAMP production
Structures can show the parent of a compound that is named as a salt.
Hi all, reminder that labels come from EC50, split as low value (below 0.6 nM), medium value (0.6 nM to below 4 nM), high value (4 nM or more)

compound	assignedClass
C[N+]1(C)CCC(OC(=O)Nc2cc(CCC(=O)Nc3ccc(CNC[C@H](O)c4ccc(O)c5[nH]c(=O)ccc45)c(Cl)c3)ccc2-c2ccccc2)CC1 [Example 3, trifluoroacetate]	high value
COc1cc(NC(=O)CCCc2ccc(-c3ccccc3)c(NC(=O)OC3C[C@H]4CC[C@H](C3)[N+]4(C)C)c2)c(Cl)cc1CNC[C@H](O)c1ccc(O)c2[nH]c(=O)ccc12 (some centres unmarked) [Example 48]	low value
C[N+]1(C)CCC(OC(=O)Nc2cc(OCCCCCCNC[C@H](O)c3ccc(O)c4[nH]c(=O)ccc34)ccc2-c2ccccc2)CC1 [Example 59, trifluoroacetate]	low value
C[N+]1(C)CCC(OC(=O)Nc2cc(CCCC(=O)Nc3ccc4cc(CNC[C@H](O)c5ccc(O)c6[nH]c(=O)ccc56)ccc4c3)ccc2-c2ccccc2)CC1 [Example 23, trifluoroacetate]	medium value
C[N+]1(C)CCC(OC(=O)Nc2cc(CCCC(=O)Nc3ccc(CNC[C@H](O)c4ccc(O)c5[nH]c(=O)ccc45)cc3Br)ccc2-c2ccccc2)CC1 [Example 30, trifluoroacetate]	low value
C[N+]1(C)CCC(OC(=O)Nc2cc(CCCOc3ccc(CCNC[C@H](O)c4ccc(O)c5[nH]c(=O)ccc45)cc3)ccc2-c2ccccc2)CC1 [Example 77, trifluoroacetate]	medium value
CCOc1cc(NC(=O)CCCc2ccc(-c3ccccc3)c(NC(=O)OC3CC[N+](C)(C)CC3)c2)ccc1CNC[C@H](O)c1ccc(O)c2[nH]c(=O)ccc12 [Example 27, trifluoroacetate]	medium value
COc1cc(NC(=O)CCCc2ccc(NC(=O)O[C@@H]3C[C@@H]4[C@H]5O[C@H]5[C@H](C3)[N+]4(C)C)c(-c3ccccc3)c2)c(Cl)cc1CNC[C@H](O)c1ccc(O)c2[nH]c(=O)ccc12 [Example 55]	low value
C[N+]1(C)[C@@H]2CC(OC(=O)Nc3cc(CCCCC(=O)Nc4ccc(CNC[C@H](O)c5ccc(O)c6[nH]c(=O)ccc56)cc4)ccc3-c3ccccc3)C[C@H]1[C@@H]1O[C@@H]12 (some centres unmarked) [Example 50]	medium value
C[N+]1(C)CCC(OC(=O)Nc2cc(CCCCCCCCCNC[C@H](O)c3ccc(O)c4[nH]c(=O)ccc34)ccc2-c2ccccc2)CC1 [Example 76, trifluoroacetate]	high value
C[N+]1(C)CCC(OC(=O)Nc2cc(CCCCOc3ccc(CNC[C@H](O)c4ccc(O)c5[nH]c(=O)ccc45)cc3)ccc2-c2ccccc2)CC1 [Example 61, trifluoroacetate]	high value
C[N+]1(C)CCC(OC(=O)Nc2cc(CCC(=O)Nc3ccc(CCNC[C@H](O)c4ccc(O)c5[nH]c(=O)ccc45)cc3)ccc2-c2ccccc2)CC1 [Example 63, trifluoroacetate]	high value
C[N+]1(C)[C@@H]2C[C@@H](OC(=O)Nc3ccc(CCCC(=O)Nc4ccc(CNC[C@H](O)c5ccc(O)c6[nH]c(=O)ccc56)cc4Cl)cc3-c3ccccc3)C[C@H]1[C@@H]1O[C@@H]12 [Example 71]	low value
CCOc1cc(NC(=O)CCc2ccc(-c3ccccc3)c(NC(=O)OC3C[C@@H]4[C@H]5O[C@H]5[C@H](C3)[N+]4(C)C)c2)ccc1CNC[C@H](O)c1ccc(O)c2[nH]c(=O)ccc12 (some centres unmarked) [Example 47]	medium value
C[N+]1(C)CCC(OC(=O)Nc2cc(/C=C/C(=O)Nc3ccc(CNC[C@H](O)c4ccc(O)c5[nH]c(=O)ccc45)cc3)ccc2-c2ccccc2)CC1 [Example 67, trifluoroacetate]	low value
C[N+]1(C)CCC(OC(=O)Nc2cc(OCCOc3ccc(CCNC[C@H](O)c4ccc(O)c5[nH]c(=O)ccc45)cc3)ccc2-c2ccccc2)CC1 [Example 79]	high value

Value source: patent US9072734B2
